- TARGET_SYSTEM: T1, Cynomolgus monkey CD98 ECD with C-terminal His-tag (SEQ ID NO: 127) (cynomolgus monkey, UniProt P08195 105-529 (human entry))
- T1 construct: The entry includes the linker and the polyhistidine tag; also called cyCD98 ECD
- T1 chain: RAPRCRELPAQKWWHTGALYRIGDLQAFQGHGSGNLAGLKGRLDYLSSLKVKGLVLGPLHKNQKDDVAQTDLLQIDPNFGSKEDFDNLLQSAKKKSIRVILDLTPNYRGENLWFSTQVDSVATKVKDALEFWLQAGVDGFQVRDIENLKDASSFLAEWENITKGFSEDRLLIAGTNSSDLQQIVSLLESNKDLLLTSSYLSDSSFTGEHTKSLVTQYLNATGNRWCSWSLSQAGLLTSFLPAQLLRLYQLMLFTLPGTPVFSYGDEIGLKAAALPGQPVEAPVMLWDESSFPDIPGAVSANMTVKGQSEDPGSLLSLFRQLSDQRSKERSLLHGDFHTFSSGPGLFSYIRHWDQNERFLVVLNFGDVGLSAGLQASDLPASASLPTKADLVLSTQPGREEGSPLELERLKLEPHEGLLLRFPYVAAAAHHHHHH
- ASSAY_REMARKS: SPR (Biacore), recombinant CD98 ECD
PROPERTY_LABEL: kon (M⁻¹ s⁻¹)
Dear colleague, please return just the value in M⁻¹ s⁻¹, with no unit written.

Exercise: // Input: huAb104 (antibody, human IgG1, kappa, L234A L235A, V domains shown, Framework re-engineered humanized clone (parent huAb3v2); also called CL-huAb104) VH: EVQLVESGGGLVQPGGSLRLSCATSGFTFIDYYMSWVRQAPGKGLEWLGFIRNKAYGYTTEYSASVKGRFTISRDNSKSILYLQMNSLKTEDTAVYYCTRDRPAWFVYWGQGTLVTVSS VL: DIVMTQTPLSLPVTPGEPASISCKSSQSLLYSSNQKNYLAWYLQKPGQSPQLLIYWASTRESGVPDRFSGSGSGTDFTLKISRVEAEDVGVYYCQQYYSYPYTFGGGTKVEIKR . Output its kon only.
Solution: 34000
